The reported measurements were obtained from patent US20250313535A1.

target: α4β1 integrin (Homo sapiens (Human), UniProt P05556+P13612); assay: Integrin Adhesion Assay: Protocol 5 (VCAM-coated plate, RPMI-8866 cells with stable LOF mutation of the ITGB7 gene); assay type: cell-based; conditions: RPMI-8866 cells with stable LOF mutation of the ITGB7 gene; read-out: Mean IC50 α4β1 KO^b
Sequence (P13612 34-1032): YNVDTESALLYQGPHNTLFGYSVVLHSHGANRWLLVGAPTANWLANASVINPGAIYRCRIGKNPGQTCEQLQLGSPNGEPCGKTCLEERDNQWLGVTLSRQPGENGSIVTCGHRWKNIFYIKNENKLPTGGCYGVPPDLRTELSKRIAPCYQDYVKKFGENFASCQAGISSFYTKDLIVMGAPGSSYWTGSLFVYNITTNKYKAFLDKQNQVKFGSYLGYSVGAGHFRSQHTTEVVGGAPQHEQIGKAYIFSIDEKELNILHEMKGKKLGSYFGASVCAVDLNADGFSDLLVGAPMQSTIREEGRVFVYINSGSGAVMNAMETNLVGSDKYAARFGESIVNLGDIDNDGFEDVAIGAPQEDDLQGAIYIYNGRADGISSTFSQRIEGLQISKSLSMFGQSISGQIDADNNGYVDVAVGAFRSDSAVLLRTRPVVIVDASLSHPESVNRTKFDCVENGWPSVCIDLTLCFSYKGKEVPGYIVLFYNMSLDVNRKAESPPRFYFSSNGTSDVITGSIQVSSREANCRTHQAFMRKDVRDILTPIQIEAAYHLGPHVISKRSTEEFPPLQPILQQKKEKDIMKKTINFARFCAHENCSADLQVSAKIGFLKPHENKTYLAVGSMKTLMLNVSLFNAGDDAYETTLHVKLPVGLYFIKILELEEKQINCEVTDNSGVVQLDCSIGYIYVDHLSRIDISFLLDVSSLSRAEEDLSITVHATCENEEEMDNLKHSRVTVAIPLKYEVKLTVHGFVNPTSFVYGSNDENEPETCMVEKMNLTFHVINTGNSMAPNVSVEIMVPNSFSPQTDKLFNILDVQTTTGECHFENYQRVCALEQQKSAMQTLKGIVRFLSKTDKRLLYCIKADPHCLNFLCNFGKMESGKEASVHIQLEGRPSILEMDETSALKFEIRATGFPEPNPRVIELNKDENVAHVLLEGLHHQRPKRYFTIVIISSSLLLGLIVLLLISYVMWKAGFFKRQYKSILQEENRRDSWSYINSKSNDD
Sequence (P05556 21-798): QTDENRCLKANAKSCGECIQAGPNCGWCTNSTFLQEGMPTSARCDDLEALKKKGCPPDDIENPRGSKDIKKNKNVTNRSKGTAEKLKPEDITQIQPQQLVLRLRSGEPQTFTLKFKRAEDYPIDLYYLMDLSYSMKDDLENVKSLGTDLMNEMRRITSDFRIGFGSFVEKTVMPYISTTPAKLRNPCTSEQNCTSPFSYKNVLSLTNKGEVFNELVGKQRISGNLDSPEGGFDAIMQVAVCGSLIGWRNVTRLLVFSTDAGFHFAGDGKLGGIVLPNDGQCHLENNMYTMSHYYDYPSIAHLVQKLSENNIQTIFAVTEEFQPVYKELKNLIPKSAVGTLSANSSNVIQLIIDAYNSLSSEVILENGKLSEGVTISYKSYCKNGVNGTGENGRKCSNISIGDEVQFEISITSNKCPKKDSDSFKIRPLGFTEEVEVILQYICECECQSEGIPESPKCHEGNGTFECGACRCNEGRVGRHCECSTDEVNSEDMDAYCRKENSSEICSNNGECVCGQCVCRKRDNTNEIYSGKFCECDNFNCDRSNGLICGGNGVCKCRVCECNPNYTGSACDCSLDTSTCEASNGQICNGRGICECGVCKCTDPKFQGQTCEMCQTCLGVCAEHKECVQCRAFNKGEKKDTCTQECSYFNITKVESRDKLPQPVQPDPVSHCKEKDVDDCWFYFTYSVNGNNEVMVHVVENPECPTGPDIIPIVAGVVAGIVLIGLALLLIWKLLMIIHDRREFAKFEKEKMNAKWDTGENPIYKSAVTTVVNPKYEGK
Experimental Endpoint: IC50

Solved cases (3 shown):
CC(N1CCC(C(=O)N[C@@H](Cc2cccc3c(-c4c(C(F)(F)F)c5ccccc5n(C)c4=O)cccc23)C(=O)O)(C(F)(F)F)CC1)C(F)(F)F (stereo partly shown) = > 1 µM
O=C(O)[C@H](Cc1cccc2c(-c3nccc4ccc(CCCN5CCCCC5)cc34)cccc12)NC(=O)C1(C(F)(F)F)CCN([C@H]2COCC2(F)F)CC1 = 0.1 to 1 µM
Cn1c(=O)c(-c2cccc3c(C[C@H](NC(=O)[C@]4(C(F)(F)F)CC[C@@H](N5CCOC[C@@H]5C(F)(F)F)CC4)C(=O)O)cccc23)c(C(F)(F)F)c2ccccc21 = > 1 µM

Recorded IC50 (compound COc1ccc(CN2CCCCC2)c(OC)c1-c1cccc2c(C[C@H](NC(=O)c3c(C)cccc3F)C(=O)O)cccc12 ): 0.1 to 1 µM

Entry COc1ccc(CN2CCC(F)(F)CC2)c(OC)c1-c1cccc2c(C[C@H](NC(=O)c3c(C)cc4cnn(CC(F)(F)F)c4c3F)C(=O)O)cccc12 , IC50 reported as 0.1 to 1 µM

GET /value?item= CN(C)Cc1ccc2c(-c3cccc4c(C[C@H](NC(=O)c5c(F)cc(N6CCOC[C@@H]6C(F)(F)F)cc5CN5CCOCC5)C(=O)O)cccc34)nccc2c1 &field=IC50 returns > 1 µM

So for Cn1c(=O)c(-c2cccc3c(C[C@H](NC(=O)C4(C(F)(F)F)CCN(C5CCOCC5C(F)(F)F)CC4)C(=O)O)cccc23)c(C(F)(F)F)c2ccccc21 (stereo partly shown) , the logged IC50 turned out to be > 1 µM

====

biological target: α4β7 integrin (Homo sapiens (Human), UniProt P13612+P26010); assay: Integrin Adhesion Assay: Protocol 4 (MAdCAM-coated plate, RPMI-8866 cells with stable LOF mutation of the ITGB1 gene); type: cell-based; conditions: Protocol 4; RPMI-8866 cells with LOF mutation of ITGB1, MAdCAM; read-out: Mean IC50 α4β7 KO
Sequence (P26010 20-798, one chain of several): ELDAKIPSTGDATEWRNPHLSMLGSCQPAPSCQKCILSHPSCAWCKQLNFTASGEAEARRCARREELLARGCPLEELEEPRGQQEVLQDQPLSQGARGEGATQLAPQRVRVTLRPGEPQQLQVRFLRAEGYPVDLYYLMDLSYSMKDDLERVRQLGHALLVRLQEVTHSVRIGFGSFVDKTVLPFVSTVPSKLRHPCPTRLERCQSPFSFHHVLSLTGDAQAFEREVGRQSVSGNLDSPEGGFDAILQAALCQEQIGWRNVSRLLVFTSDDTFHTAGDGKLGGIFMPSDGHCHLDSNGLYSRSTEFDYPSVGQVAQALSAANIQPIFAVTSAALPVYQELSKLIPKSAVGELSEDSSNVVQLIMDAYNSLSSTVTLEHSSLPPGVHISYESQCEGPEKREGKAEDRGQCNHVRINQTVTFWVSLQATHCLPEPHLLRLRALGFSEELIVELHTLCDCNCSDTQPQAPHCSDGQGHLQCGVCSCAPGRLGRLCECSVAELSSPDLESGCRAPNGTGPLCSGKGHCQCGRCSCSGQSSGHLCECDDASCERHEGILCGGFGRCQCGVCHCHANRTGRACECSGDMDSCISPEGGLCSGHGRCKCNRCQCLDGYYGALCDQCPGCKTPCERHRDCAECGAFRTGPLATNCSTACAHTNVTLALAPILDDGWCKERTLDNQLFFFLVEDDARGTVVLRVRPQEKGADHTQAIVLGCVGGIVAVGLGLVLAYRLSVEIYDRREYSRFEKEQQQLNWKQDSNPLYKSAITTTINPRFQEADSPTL
pIC50: −log10 of the molar value.
Experimental Endpoint: pIC50

O=C(O)[C@H](Cc1cccc2c(-c3ncc(CN4CCC(F)(F)CC4)c4ccccc34)cccc12)NC(=O)C1(C(F)(F)F)CCN(CC(F)(F)F)CC1 = 7.00 to 8.00
O=C(O)[C@H](Cc1cccc2c(-c3ncc(CN4CCC(C(F)(F)F)CC4)c4ccccc34)cccc12)NC(=O)C1(C(F)(F)F)CCN(CC(F)(F)F)CC1 = 7.00 to 8.00
COc1cc2ncccc2c(C)c1-c1cccc2c(C[C@H](NC(=O)C3(C(F)(F)F)CCN(CC(F)(F)F)CC3)C(=O)O)cccc12 = 7.00 to 8.00
CC[C@@H]1CCCN1Cc1cnc(-c2cccc3c(C[C@H](NC(=O)C4(C(F)(F)F)CCN(CC(F)(F)F)CC4)C(=O)O)cccc23)c2ccccc12 = > 8.00
O=C(O)[C@H](Cc1cccc2c(-c3ncc(CN4CCC[C@@H](F)C4)cc3C3CC3)cccc12)NC(=O)C1(C(F)(F)F)CCN(CC(F)(F)F)CC1 = > 8.00
CC1(C)CCCN(Cc2cnc(-c3cccc4c(C[C@H](NC(=O)C5(C(F)(F)F)CCN(CC(F)F)CC5)C(=O)O)cccc34)c3ccccc23)CC1 = > 8.00
CN(C)Cc1ccc2c(c1)c(C(F)(F)F)c(-c1cccc3c(C[C@H](NC(=O)c4c(F)cccc4CN4CCC(F)(F)CC4)C(=O)O)cccc13)c(=O)n2C = 7.00 to 8.00
COc1cccc(CCN2CCC(F)(F)CC2)c1-c1cccc2c(C[C@H](NC(=O)c3c(C)cccc3F)C(=O)O)cccc12 = 7.00 to 8.00

Entry under test: O=C(O)[C@H](Cc1cccc2c(-c3ncc(CN4CCC[C@@H](F)C4)c4ccccc34)cccc12)NC(=O)C1(C(F)(F)F)CCN(CC(F)F)CC1 . Its pIC50 was > 8.00

The compound identified as COc1ccc(CN2CCCCC2)nc1-c1cccc2c(C[C@H](NC(=O)C3(C(F)(F)F)CCN(CC(F)(F)F)CC3)C(=O)O)cccc12 registered its pIC50 at > 8.00

====

Listed molecules paired with reported IC50
target: α4β1 integrin (Homo sapiens (Human), UniProt P05556+P13612); test: Integrin Adhesion Assay: Protocol 5 (VCAM-coated plate, RPMI-8866 cells with stable LOF mutation of the ITGB7 gene); type: cell-based; settings: Protocol 5; RPMI-8866 cells with LOF mutation of ITGB7, VCAM; read-out: Mean IC50 α4β1 KO

Cn1c(=O)c(-c2cccc3c(C[C@H](NC(=O)C4(C(F)(F)F)CCN(CC(F)(F)F)CC4)C(=O)O)cccc23)c(C(F)(F)F)c2cc(CN3CCC(c4ccccc4)CC3)ccc21 = 100 to 1000 nM
O=C(O)[C@H](Cc1cccc2c(-c3ncc(CN4CCC[C@@H](F)C4)cc3C3CC3)cccc12)NC(=O)C1(C(F)(F)F)CCN(CC(F)F)CC1 = 100 to 1000 nM
COC(=O)[C@H](Cc1cccc2c(-c3nc(CN4CCCCC4)cc4ccncc34)cccc12)NC(=O)C1(C(F)(F)F)CCN(CC(F)(F)F)CC1 = > 1000 nM

# IC50 of COc1ccc(CN2CC3CCC(C2)O3)c(OC)c1-c1cccc2c(C[C@H](NC(=O)C3(C(F)(F)F)CCN(CC(F)(F)F)CC3)C(=O)O)cccc12 = > 1000 nM

Record Cn1c(=O)c(-c2cccc3c(C[C@H](NC(=O)C4(C(F)(F)F)CCN(CC(F)(F)F)CC4)C(=O)O)cccc23)c(C(F)(F)F)c2ccc(CN3CCC(F)(F)CC3)cc21 , field IC50: > 1000 nM

Record summary for Cn1c(=O)c(-c2cccc3c(C[C@H](NC(=O)c4c(F)cccc4F)C(=O)O)cccc23)c(C(F)(F)F)c2cc(CO)ccc21 : reported IC50 = > 1000 nM

The recorded IC50 for O=C(O)[C@H](Cc1cccc2c(-c3ncc(CN4CCOCC45CC5)c4ccccc34)cccc12)NC(=O)C1(C(F)(F)F)CCN(CC(F)(F)F)CC1 is > 1000 nM

====

molecular target: α4β7 integrin (Homo sapiens (Human), UniProt P13612+P26010); assay: Integrin Adhesion Assay: Protocol 1 (MAdCAM-coated plate, RPMI-8866 cells, CellTiter GLO readout); assay type: cell-based
Experimental Endpoint: IC50

Cn1c(=O)c(-c2cccc3c(C[C@H](NC(=O)c4c(F)cc(N5CC(C)(C)OC(C)(C)C5)cc4F)C(=O)O)cccc23)c(C(F)(F)F)c2ccccc21 = 10 to 100 nM
Cn1c(=O)c(-c2cccc3c(C[C@H](NC(=O)c4c(F)cc5cn(CC(F)(F)F)nc5c4F)C(=O)O)cccc23)c(C(F)(F)F)c2ccccc21 = 100 to 1000 nM

CN(C)Cc1cccc2c(-c3cccc4c(C[C@H](NC(=O)[C@]5(C)CC[C@H](N6CCC(F)(F)CC6)CC5)C(=O)O)cccc34)nccc12 [Compound 425] yielded IC50 of 100 to 1000 nM

====

// reported pIC50 for each item listed
target: α4β1 integrin (Homo sapiens (Human), UniProt P05556+P13612); assay: Integrin Adhesion Assay: Protocol 2 (VCAM-coated plate, Jurkat cells, CellTiter GLO readout); format: cell-based; conditions: determined by at least one of the assays described (protocol not specified)
pIC50: −log10 of the molar value.

CN(C)CCc1cn(C)c(=O)n(-c2cccc3c(C[C@H](NC(=O)c4c(F)cccc4F)C(=O)O)cccc23)c1=O = < 6.00
Cn1c(CCN2CC(F)C2)cc(=O)n(-c2cccc3c(C[C@H](NC(=O)c4c(F)cc(N5CCOC[C@@H]5C(F)(F)F)cc4F)C(=O)O)cccc23)c1=O = < 6.00

The observed pIC50 for Cn1c(C(F)(F)F)ccc(-c2cccc3c(C[C@H](NC(=O)c4c(F)cc(N5CCOC[C@@H]5C(F)(F)F)cc4F)C(=O)O)cccc23)c1=O when tested with α4β1 integrin (Homo sapiens (Human), UniProt P05556+P13612) stands at < 6.00

====

biological target: α4β1 integrin (Homo sapiens (Human), UniProt P05556+P13612); test: Integrin Adhesion Assay: Protocol 5 (VCAM-coated plate, RPMI-8866 cells with stable LOF mutation of the ITGB7 gene); type: cell-based; conditions: RPMI-8866 cells with stable LOF mutation of the ITGB7 gene; read-out: Mean IC50 α4β1 KO^b
Experimental Endpoint: IC50

COc1ccc(CN2CCCCC2)c(OC)c1-c1cccc2c(C[C@H](NC(=O)c3c(F)cccc3-c3ccccc3)C(=O)O)cccc12 = > 1000 nM

Given item COc1ccc(CN2CCCC(C)C2)c(OC)c1-c1cccc2c(C[C@H](NC(=O)c3c(C)cccc3F)C(=O)O)cccc12 (stereo partly shown) , the value recorded as its IC50 is 100 to 1000 nM

Value of IC50 reported for the molecule CC(=O)CN1CCC(C(=O)N[C@@H](Cc2cccc3c(-c4c(C(F)(F)F)c5ccccc5n(C)c4=O)cccc23)C(=O)O)(C(F)(F)F)CC1 is 100 to 1000 nM

GET /value?item= Cc1cccc(F)c1C(=O)N[C@@H](Cc1cccc2c(-c3c(C(F)(F)F)c4ccccc4n(C)c3=O)cccc12)C(=O)O &field=IC50 returns > 1000 nM

IC50 reported for this molecule Cn1c(=O)c(-c2cccc3c(C[C@H](NC(=O)[C@]4(C)CC[C@H](N5CCC(F)(F)CC5)CC4)C(=O)O)cccc23)c(C(F)(F)F)c2ccccc21 : > 1000 nM

Entry Cn1c(=O)c(-c2cccc3c(C[C@H](NC(=O)C4(C(F)(F)F)CCN(C5CCS(=O)(=O)CC5)CC4)C(=O)O)cccc23)c(C(F)(F)F)c2ccccc21 — recorded IC50 = > 1000 nM

Field IC50 (entry COc1cccc(OC)c1-c1cccc2c(C[C@H](NC(=O)c3c(C)cccc3F)C(=O)O)cccc12 ) reads > 1000 nM

GET /value?item= COc1ccc(CN2CCC(F)(F)CC2)c(OC)c1-c1cccc2c(C[C@H](NC(=O)c3c(C)cc(C45CCOCC4C5)cc3F)C(=O)O)cccc12 (stereo partly shown) &field=IC50 returns > 1000 nM

Form: molecule = COCCN(CC(F)(F)F)c1cc(F)c(C(=O)N[C@@H](Cc2cccc3c(-c4c(C(F)(F)F)c5ccccc5n(C)c4=O)cccc23)C(=O)O)c(F)c1 ; IC50 = > 1000 nM

Entry under test: Cn1c(=O)c(-c2cccc3c(C[C@H](NC(=O)C4(C)CCN([C@H]5CCOC5)CC4)C(=O)O)cccc23)c(C(F)(F)F)c2ccccc21 . Its IC50 was > 1000 nM

Form field IC50, entry COc1ccc(CCN(C)C)c(OC)c1-c1cccc2c(C[C@H](NC(=O)C3(C(F)(F)F)CCN(CC(F)(F)F)CC3)C(=O)O)cccc12 : 100 to 1000 nM

Lab book: IC50 of O=C(O)[C@H](Cc1cccc2c(-c3ncc(CN4CCC(C(F)(F)F)CC4)c4ccccc34)cccc12)NC(=O)C1(C(F)(F)F)CCN(C2COC2)CC1 noted as > 1000 nM

The reported value for O=C(O)[C@H](Cc1cccc2c(-c3nccc4c(CN5CC(F)C5)cccc34)cccc12)NC(=O)C1(C(F)(F)F)CCN(CC(F)(F)F)CC1 in terms of IC50 is > 1000 nM
